Hi there, I'd appreciate the recorded z-score for every entry that follows.
- MEASURED TARGET: NADPH oxidase 4 (Homo sapiens) (UniProt Q9NPH5)
- Sequence (Q9NPH5 whole entry, looked up): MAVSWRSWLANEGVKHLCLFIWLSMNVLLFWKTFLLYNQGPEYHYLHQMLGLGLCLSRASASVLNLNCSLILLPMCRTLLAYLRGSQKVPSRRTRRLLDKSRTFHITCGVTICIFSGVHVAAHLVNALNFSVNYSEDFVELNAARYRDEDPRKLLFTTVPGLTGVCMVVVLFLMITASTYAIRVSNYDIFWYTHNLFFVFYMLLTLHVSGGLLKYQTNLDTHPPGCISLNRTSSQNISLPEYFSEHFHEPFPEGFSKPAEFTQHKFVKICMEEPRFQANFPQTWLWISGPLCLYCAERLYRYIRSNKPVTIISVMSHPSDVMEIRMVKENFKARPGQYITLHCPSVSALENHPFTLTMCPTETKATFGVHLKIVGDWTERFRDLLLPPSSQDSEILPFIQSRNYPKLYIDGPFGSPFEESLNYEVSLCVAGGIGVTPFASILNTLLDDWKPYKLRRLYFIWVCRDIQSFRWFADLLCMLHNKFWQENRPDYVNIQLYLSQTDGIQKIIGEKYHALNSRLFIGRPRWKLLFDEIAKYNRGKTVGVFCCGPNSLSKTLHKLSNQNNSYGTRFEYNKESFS
- MEASUREMENT PROTOCOL: NOX4-dependent H2O2 signal modulators, primary screen, NOX inhibitor project, cell-based, HEK293-NOX4, tetracycline-induced, Amplex Red fluorescence (AID 1160)
- CONDITION CONTEXT: 45 min, higher = more signal, called active from +8 up or from −8 down
Calls of active or inactive are those of the source.

Asked: Return z-score for the following compound: Cc1ccc(S[C@]2(C(=O)NCCN3CCOCC3)CC(=O)N(Cc3ccccc3Cl)[C@@H]2c2ccc(CO)cc2)cc1
Given back: -1.85 (inactive)

Asked: Return z-score for the following compound: C[N+](C)(C)CCCC[C@@H]1NC(=O)[C@@H]2C[C@H](C(=O)NCCCCCN)[C@H](c3cccc(OCCO)c3)N2C1=O
Given back: 0.289 (inactive)

More entries:
Asked: Return z-score for the following compound: C=CCNC(=O)[C@@H]1[C@H]2C(=O)O[C@H](c3ccccc3)[C@H](c3ccccc3)N2[C@H](c2ccc(OCCO)cc2)[C@@]12C(=O)Nc1ccc(C#Cc3ccc(OC)cc3)cc12
Given back: -1.11 (inactive)
